Substrate: gfPET
assayText: Proxy for plastic degradation [Released monomer concentration (HPLC/LC-MS) (TPA+MHET+BHET)]
conditions: 75 °C
reportedProperty: Proxy for plastic degradation (mmol/h)
Hi! Could you send only the number? It should be in mmol/h, unit omitted.

INPUT: Consider the protein unnamed (protein) MENPYERGPDPTTQSVEAARGPYAVSQITVGGQFGSYSGGTIYYPTSTADGKFGAVAIAPGFLSFQSSVAWLGPRIASQGFVVMTIDTGTIFDQPAQRGDQLLDALDFLTQRSSVKDRIDPNRLAVAGWSWGGGGSLEAAADRPSLKAAIPMAGWNLNTNWSRLTTPVLVVGVQNDLIAPVAMHSEPFYNSIRSEKAYLELAGGSHFTVTSANTPQAKLMISWLKRFVDNDTRYEQFICPGPSRGFSVSEYRSTCPY and give its measured Proxy for plastic degradation.
OUTPUT: 0
